Values from ChEMBL document CHEMBL3046927

Tested on: Triticum aestivum
Assay: Phytotoxicity against Triticum aestivum (wheat) plants assessed as crop damage at 125 g ai/ha measured after 3 weeks post compound treatment
Type: organism-based
Details: in vivo, 504 h
reported endpoint: Activity (%)
Hi! Could you send only the number? It should be in %, unit omitted.

Problem: Give Activity for CC(Sc1nnc([C@@H](C)Oc2ccc(Oc3ncc(Cl)cc3F)cc2)o1)C(=O)O (stereo not given in full)
Solution: 0

Problem: For the compound C[C@@H](Oc1ccc(Oc2ncc(Cl)cc2F)cc1)c1nnc(SCc2ccccc2)o1 , report Activity.
Solution: 0

Problem: State its Activity for this compound: C[C@@H](Oc1ccc(Oc2ncc(Cl)cc2F)cc1)c1nnc(SCc2ccc(Cl)nc2)o1
Solution: 0

Problem: Look up and state reported Activity for CCSc1nnc([C@@H](C)Oc2ccc(Oc3ncc(Cl)cc3F)cc2)o1
Solution: 5

Problem: Return Activity for the following compound: CSc1nnc([C@@H](C)Oc2ccc(Oc3ncc(Cl)cc3F)cc2)o1
Solution: 5

====

Please go through the items and note down their Activity.
Test system: Hordeum vulgare
Experiment: Phytotoxicity against Hordeum vulgare (barley) plants assessed as crop damage at 125 g ai/ha measured after 3 weeks post compound treatment
Type: organism-based
Settings: in vivo, 504 h
Note: unit % is implicit; provide only the numeric part.

Problem: Please tell me the measured Activity for C[C@@H](Oc1ccc(Oc2ncc(Cl)cc2F)cc1)c1nnc(SCc2ccc(Cl)nc2)o1 ; system: Hordeum vulgare.
Solution: 0

Problem: Write down measured Activity (Hordeum vulgare) for this compound. CC(Sc1nnc([C@@H](C)Oc2ccc(Oc3ncc(Cl)cc3F)cc2)o1)C(=O)O (stereo not given in full)
Solution: 15

Problem: Please respond with reported Activity (system Hordeum vulgare) for C[C@@H](Oc1ccc(Oc2ncc(Cl)cc2F)cc1)c1nnc(SCc2ccccc2)o1 .
Solution: 0

Problem: Please report the measured Activity for C#CCSc1nnc([C@@H](C)Oc2ccc(Oc3ncc(Cl)cc3F)cc2)o1 tested on Hordeum vulgare.
Solution: 0

Problem: Quote Hordeum vulgare Activity for entry C#CCOC(=O)[C@@H](C)Oc1ccc(Oc2ncc(Cl)cc2F)cc1 [CLODINAFOP PROPARGYL] .
Solution: 35

Problem: Provide the reported Activity (system: Hordeum vulgare) for CC(O)CSc1nnc([C@@H](C)Oc2ccc(Oc3ncc(Cl)cc3F)cc2)o1 (stereo not given in full)
Solution: 0

Problem: Please respond with reported Activity (system Hordeum vulgare) for C[C@@H](Oc1ccc(Oc2ncc(Cl)cc2F)cc1)c1nnc(SCC(N)=O)o1 .
Solution: 0

Problem: Provide measured Activity on Hordeum vulgare for CCCCCSc1nnc([C@@H](C)Oc2ccc(Oc3ncc(Cl)cc3F)cc2)o1 please.
Solution: 5

Problem: Please respond with reported Activity (system Hordeum vulgare) for C[C@@H](Oc1ccc(Oc2ncc(Cl)cc2F)cc1)c1nnc(SCC(=O)O)o1 .
Solution: 15

Problem: Recall the reported Activity of CCCCSc1nnc([C@@H](C)Oc2ccc(Oc3ncc(Cl)cc3F)cc2)o1 when tested on Hordeum vulgare.
Solution: 10
